Assay System: 3-oxo-5-alpha-steroid 4-dehydrogenase 2 (Homo sapiens)
Sequence (P31213 whole entry): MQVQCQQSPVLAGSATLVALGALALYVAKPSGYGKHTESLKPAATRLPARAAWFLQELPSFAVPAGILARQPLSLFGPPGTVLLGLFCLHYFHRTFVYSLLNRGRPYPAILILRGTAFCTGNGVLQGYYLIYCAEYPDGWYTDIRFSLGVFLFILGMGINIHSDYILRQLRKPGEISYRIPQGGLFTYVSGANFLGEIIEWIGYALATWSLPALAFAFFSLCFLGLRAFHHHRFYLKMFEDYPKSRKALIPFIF
Run Description: Inhibition of Steroid 5-alpha-reductase type 2 isozyme
Observation Type: IC50 (µM)
Express it in µM; write the number only.

Lookup: Determine reported IC50 for C[C@]12CC[C@H]3[C@@H](CC=C4C[C@@H](O)CC[C@@]43C)[C@@H]1CC[C@@H]2[C@H]1CN1 ; test system: 3-oxo-5-alpha-steroid 4-dehydrogenase 2 (Homo sapiens).
Found: 10
